System: A2780cis cells
Assay: Photo- and cytotoxic activity determination (MTT), A2780cis cells, normoxia or hypoxia
Format: cell-based
Details: 250 μM; A2780cis; 2 h incubation in the dark, 48 h drug-free recovery; normoxia; read-out: Partial inhibition (% of cell growth inhibition with respect to untreated controls), Normoxia
What inhibition at 250 µM was measured for each of the following?
Could you give me the number in %? Just the number is fine.

What inhibition at 250 µM value was documented for this compound, NCC(=O)CCC(=O)O [5-ALA, 5-aminolevulinic acid, reference compound] ?
3.5

What measured inhibition at 250 µM goes with CC1=C/C(=C(\C#N)c2cc[n+](C)cc2)Oc2ccccc21 ?
24

Need inhibition at 250 µM of CCN(CC)c1ccc2c(c1)O/C(=C(/C#N)c1cc[n+](C)cc1)C=C2C , thanks.
3.5

State the recorded inhibition at 250 µM for this entry: CC1=C/C(=C(\C#N)c2cc[n+](C)cc2)Oc2c1cc1c3c2CCCN3CCC1
100
